Target: T1, human interleukin-23 receptor (IL23R) (human, UniProt Q5VWK5 24-355, limits assumed)
T1 construct: also called human IL23R
T1 sequence (looked up): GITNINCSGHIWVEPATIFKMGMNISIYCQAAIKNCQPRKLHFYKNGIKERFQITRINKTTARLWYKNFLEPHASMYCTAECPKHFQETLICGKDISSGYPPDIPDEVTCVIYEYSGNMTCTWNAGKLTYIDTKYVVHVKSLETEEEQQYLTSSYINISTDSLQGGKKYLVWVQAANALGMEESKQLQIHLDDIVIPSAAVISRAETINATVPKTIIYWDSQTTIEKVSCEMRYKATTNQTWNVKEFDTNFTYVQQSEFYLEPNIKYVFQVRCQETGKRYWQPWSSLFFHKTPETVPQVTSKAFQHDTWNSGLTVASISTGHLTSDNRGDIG
Assay: SPR; KD of the capped scFv over KD of its uncapped counterpart
Listed next: entries and their corresponding Ratio (capped/uncapped) of KD.

>>> obs_value("Vκ1/VH4 consensus λ-capped, human IL23R specific scFv (scFv, scFv VL-linker-VH, made in E. coli; also called Vκ1VH4 capped) scFv: DIQMTQSPSSLSASVGDRVTITCQASENIYSFLAWYQQKPGKAPKLLIYSASKLAAGVPSRFSGSGSGTDFTLTISSLQPEDFATYYCQQTNRYSNPDIYNVFGGGTKLTVLGGGGGSGGGGSGGGGSGGGGSQVQLQESGPGLVKPSETLSLTCTVSGIDFNSNYYMCWIRQPPGKGLEWIGCIYVGSHVNTYYANWAKGRVTISVDTSKNQFSLKLSSVTAADTAVYYCATSGSSVLYFKFWGQGTLVTVSS")
0.5

Now, please, on to the next binder.
Query: Can you share its Ratio (capped/uncapped) of KD? I mean this binder: Vκ1/VH6 consensus λ-capped, human IL23R specific scFv (scFv, scFv VL-linker-VH, made in E. coli; also called Vκ1VH6 capped) scFv: DIQMTQSPSSLSASVGDRVTITCQASENIYSFLAWYQQKPGKAPKLLIYSASKLAAGVPSRFSGSGSGTDFTLTISSLQPEDFATYYCQQTNRYSNPDIYNVFGGGTKLTVLGGGGGSGGGGSGGGGSGGGGSQVQLQQSGPGLVKPSQTLSLTCAISGIDFNSNYYMCWIRQSPGRGLEWLGCIYVGSHVNTYYANWAKGRITINPDTSKNQFSLQLNSVTPEDTAVYYCATSGSSVLYFKFWGQGTLVTVSS
Response: 1
